Where do these numbers come from? They come from ChEMBL document CHEMBL3637782.

Test: GSK_TB: Lipophilicity, log D of the compound at pH 7.4 by ChromlogD analysis
Format: physicochemical
Settings: buffer
Outcome label depends on Lipophilicity relative to 5: at/above gives YES, below gives NO.

> print(dat)
                                   compound  label.value
1  NCC(c1cccs1)S(=O)(=O)c1ccccc1 (stereo unspecified)           NO
2  Nc1ccc(S(=O)(=O)Nc2ccnn2-c2ccccc2)cc1 [SULFAPHENAZOLE]           NO
3      O=C(NCc1ccco1)N1CCN(Cc2ccc(Cl)s2)CC1           NO
4  CCCCc1ccc(C(=O)Nc2nnc(S(=O)(=O)CCCC)s2)nc1          YES
5  Fc1ccc(Cc2nnc(-c3ccnc(Nc4ccc(OCCN5CCOCC5)cc4)n3)[nH]2)cc1           NO

###

Assay: GSK_TB: Kinetic solubility of the compound in phosphate buffered saline at pH 7.4 after 1 hr by CLND method
Assay type: physicochemical
Each item that follows carries a reported log10 of solubility kinetic at 1 h.
Property: log10 of solubility kinetic at 1 h (log10 of the value in µg/mL)

> print(dat)
                                    compound  value.observed
 1    COc1ccc(-c2nnc3sc(Cc4csc(C)n4)nn23)cc1            1.98
 2  CC(C)Oc1ccc(-c2nnc(-c3ccc4c(c3)CCNCC4)s2)cc1Cl            0.70
 3  O=C(Nc1nc2c(s1)CCCc1cccnc1-2)c1ccccc1C(F)(F)F            0.95
 4  FC(F)(F)Oc1ccc(-c2cc3ccncc3cc2OC2CCNCC2)cc1            1.91
 5  O=C(Nc1nc(-c2ccccn2)cs1)N1CCC(Cc2ccc(F)cc2)CC1            0.60
 6  N#Cc1cccc(-c2ccc(NC[C@H]3CC[C@]4(CC3)CN(c3cccnn3)C(=O)O4)nc2)c1            1.04
 7  Cc1c(C(=O)NCCOc2ccccc2)[nH]c2c1C(=O)CCC2            1.66
 8        NC(=O)c1cc2ccc(CC(=O)c3cccs3)cc2s1            0.90
 9  Cc1nc(Nc2cnn(Cc3ccccc3F)c2)c2nn(C)c(C)c2n1            1.36
10  Fc1cccc(Oc2cc(C3CCCNC3)nc(-c3ccncc3)n2)c1 (centres undefined)            1.81
11  CC(C)c1noc(N2CCC([C@H](C)Oc3cnc(-c4ccc(S(C)(=O)=O)c(F)c4)cn3)CC2)n1            1.11
12                  CCOc1cc2ccccc2cc1C(=O)NC            1.81
13  NC(=O)c1ccc(CN(C2CC2)S(=O)(=O)c2ccccc2F)cc1            2.12
14      O=C(NCc1ccco1)N1CCN(Cc2ccc(Cl)s2)CC1            1.99
15                    Nc1ccccc1Nc1ccc(Cl)cc1            1.77
16  Fc1ccc(Cc2nnc(-c3ccnc(Nc4ccc(OCCN5CCOCC5)cc4)n3)[nH]2)cc1            1.84
17  Cc1ccc2c(c1)c(=O)cc(C(F)(F)F)n2CCNC(=O)c1ccccn1            0.78
18  N#Cc1cc(C(F)(F)F)c2nc(C(=O)NCc3cccs3)c(Cl)n2c1            1.86
19          CCCC/C=C/c1cc2ccncc2cc1OC1CCNCC1            1.56
20  CC1CC1c1ccc(CN2CCc3nc(Nc4ccccc4)sc3CC2)o1 (centres undefined)            1.73
21  CC(C)N(C(=O)CNc1ccccc1Nc1ccccc1)c1ccccc1            0.90
22           Cc1ccc2oc(SCC(=O)Nc3nccs3)nc2n1            1.49
23  Nc1ccc(C(O)CNCCc2ccccc2)cc1O (centres undefined)            1.72
24  O=S(=O)(NCc1ccccc1)c1ccc(-c2cc3ccncc3cc2OC2CCNCC2)s1            1.52
25                    COc1ccc(Nc2ncccc2N)cc1            1.26
26  c1ccc(-c2ncc(-c3ccc(OCCCn4ccnc4)cc3)s2)cc1            0.48
27                  O=C(O)CCc1nc2ccccc2oc1=O            1.80
28  CCCCc1ccc(C(=O)Nc2nnc(S(=O)(=O)CCCC)s2)nc1            0.18
29  O=C(NCCO)c1c(O)c2ncc(Cc3ccc(F)cc3C(F)(F)F)cc2[nH]c1=O            1.00
30  CCCCNCC1COc2ccc(OC)cc2C1=O (centres undefined)            2.07
31  COC(=O)c1ccc(Oc2ccc(-c3csc(C)n3)cc2F)nn1            1.23
32     CCOCn1ccc(NS(=O)(=O)c2ccc(N)cc2)nc1=O            1.72
33  O=C(NCc1ccoc1)N1CCN(Cc2ccc3c(c2)OCO3)CC1            1.93
34  CN(Cc1ccc(Cl)cc1)C(=O)CCc1nc2ccccc2oc1=O            2.10
35         CNc1snc(C)c1C(=O)NCCOc1ccc(OC)cc1            2.08
36       NS(=O)(=O)c1ccc(Nc2cnc3ccccc3n2)cc1            2.05
37  COc1ccc2nccc(NC(=O)C3CCN(CCc4ccc(Cl)cc4)CC3)c2n1            0.60
38    O=[N+]([O-])c1cnc(-c2nc3ccccc3[nH]2)s1            1.20
39  FC(F)(F)c1nnc2ccc(Sc3nnc(-c4ccco4)o3)nn12            2.10
40  O=C(NCc1ccco1)N1CCN(Cc2ccc3c(c2)CCO3)CC1            1.94
41  COc1ccc(Nc2nc(N[C@@H]3CCNC3)nc3cc[nH]c(=O)c23)cc1NC(=O)c1ccccc1            2.03
